Subject Of Test: human 5-HT2C-VSV receptors (Homo sapiens, UniProt P28335, I156V/I160V/N158S)
Sequence (P28335 33-458 I156V/N158S/I160V limits assumed): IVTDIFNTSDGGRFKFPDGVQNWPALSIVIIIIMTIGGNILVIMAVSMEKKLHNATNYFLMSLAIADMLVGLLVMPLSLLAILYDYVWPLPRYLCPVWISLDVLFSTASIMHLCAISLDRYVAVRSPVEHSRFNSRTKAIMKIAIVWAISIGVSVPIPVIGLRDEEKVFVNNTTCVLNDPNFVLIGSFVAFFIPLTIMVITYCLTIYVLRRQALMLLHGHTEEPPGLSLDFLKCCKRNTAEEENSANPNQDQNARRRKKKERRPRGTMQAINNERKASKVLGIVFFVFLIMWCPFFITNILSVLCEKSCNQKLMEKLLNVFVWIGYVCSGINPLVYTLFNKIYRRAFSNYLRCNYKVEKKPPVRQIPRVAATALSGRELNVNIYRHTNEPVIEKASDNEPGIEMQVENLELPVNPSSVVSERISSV
Assay type: binding
Measured Attribute: affinity to the 5HT2C receptor

Here's what some known entries look like.
[
  {
    "Line Notation": "Fc1ccc(C2CCNCC2)c(Sc2ccccc2Cl)c1",
    "Result": "good affinity"
  },
  {
    "Line Notation": "Fc1ccc(Sc2ccccc2C2CCNCC2)c(F)c1",
    "Result": "good affinity"
  },
  {
    "Line Notation": "Fc1ccc(Sc2ccccc2C2CCNCC2)c(Cl)c1",
    "Result": "good affinity"
  },
  {
    "Line Notation": "Fc1cccc(Sc2cccc(Cl)c2F)c1C1CCNCC1",
    "Result": "good affinity"
  },
  {
    "Line Notation": "Fc1ccc(Sc2ccc(Cl)cc2F)c(C2CCNCC2)c1",
    "Result": "good affinity"
  }
]

Inquiry: Value lookup for affinity to the 5HT2C receptor; key = Fc1cccc(Sc2ccc(C(F)(F)F)cc2)c1C1CCNCC1
Reply text: good affinity

Inquiry: Value lookup for affinity to the 5HT2C receptor; key = COc1ccc(Sc2cc(F)ccc2C2CCNCC2)cc1
Reply text: good affinity

Inquiry: Value lookup for affinity to the 5HT2C receptor; key = Cc1ccc(Sc2cccc(F)c2C2CCNCC2)cc1F
Reply text: good affinity

Inquiry: Value lookup for affinity to the 5HT2C receptor; key = Fc1cc(Cl)ccc1Sc1cccc(F)c1C1CCNCC1
Reply text: good affinity

Inquiry: Value lookup for affinity to the 5HT2C receptor; key = COc1ccc(Sc2cccc(F)c2C2CCNCC2)c(C)c1
Reply text: good affinity

Inquiry: Value lookup for affinity to the 5HT2C receptor; key = COc1ccc(Sc2cccc(F)c2C2CCNCC2)c(F)c1
Reply text: good affinity

Values compiled from patent US7732463B2.
